List of PBM E-score values.
- assay target: Vhr1 (UniProt P40522)
- Sequence: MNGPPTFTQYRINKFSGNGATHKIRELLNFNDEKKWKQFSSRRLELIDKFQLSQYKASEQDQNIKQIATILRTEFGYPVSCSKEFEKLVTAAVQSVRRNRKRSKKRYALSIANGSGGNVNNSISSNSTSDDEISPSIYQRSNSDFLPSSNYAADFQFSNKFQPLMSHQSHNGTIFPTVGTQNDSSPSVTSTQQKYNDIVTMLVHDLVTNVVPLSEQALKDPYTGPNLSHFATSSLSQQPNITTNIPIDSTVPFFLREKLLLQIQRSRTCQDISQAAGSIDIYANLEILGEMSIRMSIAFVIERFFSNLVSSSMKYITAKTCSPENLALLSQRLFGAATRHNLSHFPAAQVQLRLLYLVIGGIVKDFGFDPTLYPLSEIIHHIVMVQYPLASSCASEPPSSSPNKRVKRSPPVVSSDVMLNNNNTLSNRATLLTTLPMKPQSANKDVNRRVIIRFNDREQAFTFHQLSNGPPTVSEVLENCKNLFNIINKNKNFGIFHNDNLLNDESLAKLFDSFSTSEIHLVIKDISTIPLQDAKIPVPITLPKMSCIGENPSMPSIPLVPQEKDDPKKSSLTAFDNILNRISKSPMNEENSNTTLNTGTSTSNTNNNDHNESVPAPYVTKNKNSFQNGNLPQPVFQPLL
- experiment notes: PBM E-score (8-mer binding enrichment) (E-score (-0.5 to 0.5)); higher = stronger / more preferred TF binding
- run conditions: protein concentration: 200 nM; construct: GST-full length
Over roughly 33,000 sequences, “E-score (-0.5 to 0.5)” has its median near -0.012; the highest 2% begin near 0.27. Only a selection was taken, and the highest values are over-represented in it overall.
In your answer, state the number alone without any accompanying words.

construct sequence | assay target | recorded number
GTCTGAAA | Vhr1 (UniProt P40522) | -0.0548
GCCGTCTA | Vhr1 (UniProt P40522) | 0.00852
AGTTGCAT | Vhr1 (UniProt P40522) | -0.0357
TACCAAGA | Vhr1 (UniProt P40522) | 0.0906
ACAAGAGT | Vhr1 (UniProt P40522) | 0.108
ATGGTTCC | Vhr1 (UniProt P40522) | 0.318
CTGGTTCC | Vhr1 (UniProt P40522) | 0.0593
ACGGAGTG | Vhr1 (UniProt P40522) | 0.00137
CAGGAGTC | Vhr1 (UniProt P40522) | 0.373
ACGGAGTA | Vhr1 (UniProt P40522) | 0.0079

Input: So what does the record say about PBM E-score for `CTGGTTCA` ?
Output: -0.0177
